assay.system: MARK4 (human)
assay.method.text: KINOMEscan competition binding
test.context: compound 10.0 µM
experimental.readout: kinase still bound, per cent of control (%)
Numbers only here, please. The scale is %.

Reference set (3 entries):
CCN(CCO)CCCOc1ccc2c(Nc3cc(CC(=O)Nc4cccc(F)c4)[nH]n3)ncnc2c1 :: 100
CNC(=O)Nc1ccc(-c2nc(N3CC4CCC(C3)O4)c3cnn(C4CCC5(CC4)OCCO5)c3n2)cc1 :: 94
O=c1[nH]c2ccccc2n1C1CCN(Cc2ccc(-c3nc4cc5[nH]cnc5cc4nc3-c3ccccc3)cc2)CC1 :: 99

I am curious: what kinase still bound, per cent of control value has been reported for COc1cc2ncnc(Nc3cccc(Cl)c3)c2cc1OC ?
100

Look at this compound and give its reported kinase still bound, per cent of control. CCN1CCN(Cc2ccc(NC(=O)c3ccc(C)c(/C=C/c4cnc5[nH]ccc5c4OC)c3)cc2C(F)(F)F)CC1
100

---

assay.system: UniProt:Q15303
Sequence (Q15303 whole entry, looked up): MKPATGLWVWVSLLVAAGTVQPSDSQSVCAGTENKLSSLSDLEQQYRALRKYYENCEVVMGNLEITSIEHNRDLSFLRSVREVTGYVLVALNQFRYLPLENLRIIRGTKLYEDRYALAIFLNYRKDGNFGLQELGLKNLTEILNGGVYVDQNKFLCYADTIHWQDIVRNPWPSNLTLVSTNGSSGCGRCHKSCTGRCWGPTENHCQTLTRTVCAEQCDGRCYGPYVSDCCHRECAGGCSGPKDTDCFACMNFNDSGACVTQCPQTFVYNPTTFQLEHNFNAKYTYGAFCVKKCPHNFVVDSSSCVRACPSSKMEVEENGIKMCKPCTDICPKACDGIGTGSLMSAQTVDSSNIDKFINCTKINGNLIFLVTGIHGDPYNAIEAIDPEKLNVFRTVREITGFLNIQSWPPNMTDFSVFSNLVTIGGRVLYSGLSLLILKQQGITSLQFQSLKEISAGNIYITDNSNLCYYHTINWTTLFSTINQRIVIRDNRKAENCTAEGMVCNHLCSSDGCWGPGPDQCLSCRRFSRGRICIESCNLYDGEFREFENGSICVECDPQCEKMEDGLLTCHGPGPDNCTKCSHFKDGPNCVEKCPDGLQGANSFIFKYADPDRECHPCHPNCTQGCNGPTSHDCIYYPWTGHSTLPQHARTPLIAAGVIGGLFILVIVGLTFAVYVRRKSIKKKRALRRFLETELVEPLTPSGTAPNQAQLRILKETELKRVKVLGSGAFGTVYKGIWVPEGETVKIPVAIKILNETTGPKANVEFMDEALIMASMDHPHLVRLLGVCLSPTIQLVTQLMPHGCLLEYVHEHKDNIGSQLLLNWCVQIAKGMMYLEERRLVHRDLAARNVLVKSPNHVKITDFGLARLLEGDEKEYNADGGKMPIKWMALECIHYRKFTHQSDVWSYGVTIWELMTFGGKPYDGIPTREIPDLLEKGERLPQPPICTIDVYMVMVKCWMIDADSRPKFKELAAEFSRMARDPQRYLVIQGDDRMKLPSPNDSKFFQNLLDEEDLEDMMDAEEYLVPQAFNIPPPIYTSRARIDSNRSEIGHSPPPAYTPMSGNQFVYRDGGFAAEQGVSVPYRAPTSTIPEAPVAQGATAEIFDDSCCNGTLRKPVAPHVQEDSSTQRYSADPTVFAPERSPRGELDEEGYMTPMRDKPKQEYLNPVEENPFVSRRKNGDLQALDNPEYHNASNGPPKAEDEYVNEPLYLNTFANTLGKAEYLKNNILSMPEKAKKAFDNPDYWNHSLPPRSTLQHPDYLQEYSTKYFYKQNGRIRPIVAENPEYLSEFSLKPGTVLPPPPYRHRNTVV
assay.method.text: KINOMEscan competition binding
test.context: compound 10.0 µM
experimental.readout: kinase still bound, per cent of control (%)
Number in %, nothing else.

Examples with answers:
CNC(=O)Nc1ccc(-c2nc(N3CC4CCC(C3)O4)c3cnn(C4CCC5(CC4)OCCO5)c3n2)cc1 :: 100
N#C/C(=C1/Nc2ccccc2S1)c1ccnc(NCCc2cccnc2)n1 :: 63
CCN(CCO)CCCOc1ccc2c(Nc3cc(CC(=O)Nc4cccc(F)c4)[nH]n3)ncnc2c1 :: 4

Let's switch to this molecule now.
// kinase still bound, per cent of control lookup, key: CCN1CCN(Cc2ccc(NC(=O)c3ccc(C)c(/C=C/c4cnc5[nH]ccc5c4OC)c3)cc2C(F)(F)F)CC1
0.1

---

System: FGFR3 (human), P22607 [G697C]
Sequence (P22607 whole entry G697C, looked up): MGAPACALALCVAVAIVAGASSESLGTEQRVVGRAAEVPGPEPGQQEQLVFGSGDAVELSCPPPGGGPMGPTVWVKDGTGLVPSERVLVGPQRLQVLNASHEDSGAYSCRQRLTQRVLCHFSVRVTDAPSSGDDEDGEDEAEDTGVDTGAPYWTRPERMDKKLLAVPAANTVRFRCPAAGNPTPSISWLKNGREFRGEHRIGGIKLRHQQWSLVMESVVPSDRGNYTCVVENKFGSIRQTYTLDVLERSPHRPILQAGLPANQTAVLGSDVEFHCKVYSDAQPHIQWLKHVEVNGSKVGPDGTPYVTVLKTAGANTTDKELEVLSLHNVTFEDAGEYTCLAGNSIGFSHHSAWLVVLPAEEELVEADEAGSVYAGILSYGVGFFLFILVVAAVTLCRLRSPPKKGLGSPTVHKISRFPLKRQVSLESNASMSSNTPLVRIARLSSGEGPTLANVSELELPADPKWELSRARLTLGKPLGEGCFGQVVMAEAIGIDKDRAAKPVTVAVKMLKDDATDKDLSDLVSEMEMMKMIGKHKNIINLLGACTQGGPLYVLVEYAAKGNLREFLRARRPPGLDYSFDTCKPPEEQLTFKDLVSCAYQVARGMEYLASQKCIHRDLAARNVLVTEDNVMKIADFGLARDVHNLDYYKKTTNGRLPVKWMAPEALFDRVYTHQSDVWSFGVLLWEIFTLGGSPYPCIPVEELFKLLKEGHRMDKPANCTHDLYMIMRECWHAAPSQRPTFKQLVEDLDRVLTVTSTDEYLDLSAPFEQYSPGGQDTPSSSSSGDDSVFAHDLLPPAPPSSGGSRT
assay.method.text: KINOMEscan competition binding
test.context: compound 10.0 µM
Consider the cut-off 90%. If the recorded kinase still bound, per cent of control is strictly smaller, the label is 1 (yes); if not, the label is 0 (no).

COc1cc(C(=O)NC2CCN(C)CC2)ccc1Nc1ncc2c(n1)N(C1CCCC1)C(C)CC(=O)N2C (stereo not drawn) :: 0 (no)
CCOc1cc2ncc(C#N)c(Nc3ccc(OCc4ccccn4)c(Cl)c3)c2cc1NC(=O)/C=C/CN(C)C :: 0 (no)
CCCS(=O)(=O)Nc1ccc(F)c(C(=O)c2c[nH]c3ncc(-c4ccc(Cl)cc4)cc23)c1F :: 0 (no)
CCN1CCN(C(=O)Cc2ccc(Nc3ncc(F)c(Nc4ccc(C(=O)Nc5ccccc5Cl)cc4)n3)cc2)CC1 :: 1 (yes)
COc1cc(N2CCN(C)CC2)ccc1Nc1ncc2c(n1)N(C)c1ccccc1C(=O)N2C :: 0 (no)
Cc1ccc(C(=O)Nc2cccc(C(F)(F)F)c2)cc1Nc1cncc(C(N)=O)c1 :: 0 (no)

Please determine if CCN(CC)CCCCNc1ncc2cc(-c3cc(OC)cc(OC)c3)c(NC(=O)NC(C)(C)C)nc2n1 is below 90% in terms of kinase still bound, per cent of control.
1 (yes)

Strictly below 90% in kinase still bound, per cent of control? COc1cc2ncn(-c3cc(OCc4ccccc4C(F)(F)F)c(C(N)=O)s3)c2cc1OC
1 (yes)

Is the reported kinase still bound, per cent of control for OCCCNc1cc(-c2ccnc(Nc3cccc(Cl)c3)n2)ccn1 strictly below 90%?
0 (no)

Lab note: kinase still bound, per cent of control threshold 90%. Does this molecule come in strictly under it? CC[C@@H]1C(=O)N(C)c2cnc(Nc3ccc(C(=O)NC4CCN(C)CC4)cc3OC)nc2N1C1CCCC1
0 (no)

Determine if O=C1Nc2ccc(I)cc2/C1=C/c1cc(Br)c(O)c(Br)c1 shows kinase still bound, per cent of control strictly lower than 90%.
1 (yes)

---

The following compounds are listed with their measured kinase still bound, per cent of control values.
assay.system: UniProtKB Q32MK0
Sequence (Q32MK0 whole entry, looked up): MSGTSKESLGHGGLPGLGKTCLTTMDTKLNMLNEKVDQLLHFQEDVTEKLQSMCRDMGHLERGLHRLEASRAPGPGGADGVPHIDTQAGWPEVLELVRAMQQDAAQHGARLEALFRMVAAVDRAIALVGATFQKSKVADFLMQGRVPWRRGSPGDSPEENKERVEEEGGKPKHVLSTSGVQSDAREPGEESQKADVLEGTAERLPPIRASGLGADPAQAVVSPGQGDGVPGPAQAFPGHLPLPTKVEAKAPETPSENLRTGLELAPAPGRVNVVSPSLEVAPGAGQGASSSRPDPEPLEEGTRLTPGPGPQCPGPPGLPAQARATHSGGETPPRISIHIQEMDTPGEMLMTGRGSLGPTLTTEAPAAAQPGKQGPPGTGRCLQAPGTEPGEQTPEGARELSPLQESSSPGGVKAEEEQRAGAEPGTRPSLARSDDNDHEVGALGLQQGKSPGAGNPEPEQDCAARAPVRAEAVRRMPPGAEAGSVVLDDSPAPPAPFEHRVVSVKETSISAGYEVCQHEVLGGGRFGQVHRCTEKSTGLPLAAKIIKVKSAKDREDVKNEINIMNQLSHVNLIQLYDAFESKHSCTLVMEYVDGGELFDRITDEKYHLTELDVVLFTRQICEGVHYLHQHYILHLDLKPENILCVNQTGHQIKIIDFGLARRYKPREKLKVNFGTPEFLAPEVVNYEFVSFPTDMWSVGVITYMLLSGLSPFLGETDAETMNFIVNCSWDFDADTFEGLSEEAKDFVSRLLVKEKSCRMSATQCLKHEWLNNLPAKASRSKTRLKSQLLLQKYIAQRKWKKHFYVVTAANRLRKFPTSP
assay.method.text: KINOMEscan competition binding
test.context: compound 10.0 µM
The answer is to be given in %; state only the numeric part.

Here are 2 compounds together with their reported answers.
CC(=O)c1c(C)c2cnc(Nc3ccc(N4CCNCC4)cn3)nc2n(C2CCCC2)c1=O :: 7.6
CCCS(=O)(=O)Nc1ccc(F)c(C(=O)c2c[nH]c3ncc(Cl)cc23)c1F :: 41

For the compound CNC(=O)Nc1ccc(-c2nc(N3CC4CCC(C3)O4)c3cnn(C4CCC5(CC4)OCCO5)c3n2)cc1 , what kinase still bound, per cent of control is on record?
100

Query (compound): COc1cc2ncnc(Nc3cccc(Cl)c3)c2cc1OC ; field requested: kinase still bound, per cent of control
76

Sample Cc1cn(-c2cc(C(=O)Nc3ccc(C)c(NC(=O)c4ccno4)c3)cc(C(F)(F)F)c2)cn1 — what was its kinase still bound, per cent of control?
100

Fill in: kinase still bound, per cent of control of CC1=C(C(=O)Nc2cc3cn[nH]c3cc2F)C(c2ccc(C(F)(F)F)cc2)CC(=O)N1 (configuration not stated) is ___
92

Which kinase still bound, per cent of control value belongs to O=c1[nH]c2ccccc2n1C1CCN(Cc2ccc(-c3nc4cc5[nH]cnc5cc4nc3-c3ccccc3)cc2)CC1 ?
100

---

assay.system: CAMK2A (human) (UniProt Q9UQM7)
Sequence (Q9UQM7 whole entry, looked up): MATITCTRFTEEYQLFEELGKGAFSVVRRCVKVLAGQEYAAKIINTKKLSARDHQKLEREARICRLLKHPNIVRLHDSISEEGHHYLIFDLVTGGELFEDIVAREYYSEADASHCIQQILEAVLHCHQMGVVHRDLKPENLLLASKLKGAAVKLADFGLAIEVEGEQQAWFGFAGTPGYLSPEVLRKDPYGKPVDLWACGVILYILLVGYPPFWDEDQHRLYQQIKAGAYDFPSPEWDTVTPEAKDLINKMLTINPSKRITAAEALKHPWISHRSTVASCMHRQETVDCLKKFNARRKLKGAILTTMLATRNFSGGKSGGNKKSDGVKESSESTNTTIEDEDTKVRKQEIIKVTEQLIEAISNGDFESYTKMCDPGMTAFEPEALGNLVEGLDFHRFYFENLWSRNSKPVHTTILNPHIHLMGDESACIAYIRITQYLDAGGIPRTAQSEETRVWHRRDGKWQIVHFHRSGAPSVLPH
assay.method.text: KINOMEscan competition binding
test.context: compound 10.0 µM
Recorded kinase still bound, per cent of control by entry
All answers are understood in %, so give the number only.

Some entries whose results are on file:
COc1cc2c(Nc3ccc(NC(=O)c4ccccc4)cc3)ncnc2cc1OCCCN1CCOCC1 :: 85
N#Cc1cc(-c2ccnc(Nc3ccc(-n4cnc(-c5cccnc5)n4)cc3)n2)cc(N2CCOCC2)c1 :: 16
Cc1cn(-c2cc(C(=O)Nc3ccc(C)c(NC(=O)c4ccno4)c3)cc(C(F)(F)F)c2)cn1 :: 100
N#C/C(=C1/Nc2ccccc2S1)c1ccnc(NCCc2cccnc2)n1 :: 46
CNC(=O)Nc1ccc(-c2nc(N3CC4CCC(C3)O4)c3cnn(C4CCC5(CC4)OCCO5)c3n2)cc1 :: 100

Shift focus to the following entry.
Entry CCN(CCO)CCCOc1ccc2c(Nc3cc(CC(=O)Nc4cccc(F)c4)[nH]n3)ncnc2c1 : reported kinase still bound, per cent of control = ?
78

---

assay.system: FGFR1 (human)
assay.method.text: KINOMEscan competition binding
test.context: compound 10.0 µM
Listing of entries alongside the reported kinase still bound, per cent of control.
Please state the number and follow it with the unit.

Query the reported kinase still bound, per cent of control for FGFR1 (human); item: CNC(=O)Nc1ccc(-c2nc(N3CC4CCC(C3)O4)c3cnn(C4CCC5(CC4)OCCO5)c3n2)cc1
100%

Request: kinase still bound, per cent of control, test system FGFR1 (human), entry CCN(CCO)CCCOc1ccc2c(Nc3cc(CC(=O)Nc4cccc(F)c4)[nH]n3)ncnc2c1
85%

Any idea what kinase still bound, per cent of control came out for CCCS(=O)(=O)Nc1ccc(F)c(C(=O)c2c[nH]c3ncc(Cl)cc23)c1F on FGFR1 (human)?
34%

---

assay.system: DCLK1 (human) (UniProt O15075)
Sequence (O15075 whole entry, looked up): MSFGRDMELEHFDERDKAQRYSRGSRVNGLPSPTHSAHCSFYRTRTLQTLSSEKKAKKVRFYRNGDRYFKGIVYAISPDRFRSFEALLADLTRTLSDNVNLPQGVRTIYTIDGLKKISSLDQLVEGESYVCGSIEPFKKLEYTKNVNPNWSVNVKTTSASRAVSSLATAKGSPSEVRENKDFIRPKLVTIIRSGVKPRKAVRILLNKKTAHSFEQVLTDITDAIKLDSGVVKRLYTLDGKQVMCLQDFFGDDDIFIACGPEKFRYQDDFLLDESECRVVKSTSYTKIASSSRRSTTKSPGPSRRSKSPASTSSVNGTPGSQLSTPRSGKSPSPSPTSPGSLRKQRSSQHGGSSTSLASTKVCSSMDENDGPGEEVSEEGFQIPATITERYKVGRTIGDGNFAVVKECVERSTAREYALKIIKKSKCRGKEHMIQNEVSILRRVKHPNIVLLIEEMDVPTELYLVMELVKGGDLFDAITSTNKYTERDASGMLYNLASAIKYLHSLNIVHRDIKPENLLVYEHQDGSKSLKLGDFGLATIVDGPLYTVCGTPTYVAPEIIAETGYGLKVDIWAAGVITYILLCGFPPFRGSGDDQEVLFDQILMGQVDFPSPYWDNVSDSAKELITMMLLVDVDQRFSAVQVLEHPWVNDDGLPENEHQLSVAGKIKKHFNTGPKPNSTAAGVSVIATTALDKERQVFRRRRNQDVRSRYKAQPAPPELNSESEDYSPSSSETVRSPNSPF
assay.method.text: KINOMEscan competition binding
test.context: compound 10.0 µM
Please respond with label 1 when measured kinase still bound, per cent of control is strictly beneath 60%, and with label 0 in all other cases.

# TODO verify kinase still bound, per cent of control < 60% strictly for this compound: CCN1CCN(Cc2ccc(NC(=O)c3ccc(C)c(/C=C/c4cnc5[nH]ccc5c4OC)c3)cc2C(F)(F)F)CC1
label 0

Hello, is kinase still bound, per cent of control of the following compound strictly smaller than 60%? C=CC(=O)Nc1ccc(C(=O)c2sc(Nc3ccc(N4CCN(C)CC4)cc3OC)nc2N)cc1
label 1

Identify whether the compound CCN(CCO)CCCOc1ccc2c(Nc3cc(CC(=O)Nc4cccc(F)c4)[nH]n3)ncnc2c1 records kinase still bound, per cent of control below 60%.
label 1

Dear colleague, could you confirm whether kinase still bound, per cent of control of CNC(=O)Nc1ccc(-c2nc(N3CC4CCC(C3)O4)c3cnn(C4CCC5(CC4)OCCO5)c3n2)cc1 falls below 60%? Thanks.
label 0

Could you please tell me whether kinase still bound, per cent of control recorded for CC1=C(C(=O)Nc2cc3cn[nH]c3cc2F)C(c2ccc(C(F)(F)F)cc2)CC(=O)N1 (centres undefined) is less than 60%?
label 0

In plain terms, does COc1cc2ncnc(Nc3cccc(Cl)c3)c2cc1OC come in under 60% for kinase still bound, per cent of control?
label 1

---

Reported values of kinase still bound, per cent of control for individual entries
assay.system: FGR (human) (UniProt P09769)
Sequence (P09769 whole entry, looked up): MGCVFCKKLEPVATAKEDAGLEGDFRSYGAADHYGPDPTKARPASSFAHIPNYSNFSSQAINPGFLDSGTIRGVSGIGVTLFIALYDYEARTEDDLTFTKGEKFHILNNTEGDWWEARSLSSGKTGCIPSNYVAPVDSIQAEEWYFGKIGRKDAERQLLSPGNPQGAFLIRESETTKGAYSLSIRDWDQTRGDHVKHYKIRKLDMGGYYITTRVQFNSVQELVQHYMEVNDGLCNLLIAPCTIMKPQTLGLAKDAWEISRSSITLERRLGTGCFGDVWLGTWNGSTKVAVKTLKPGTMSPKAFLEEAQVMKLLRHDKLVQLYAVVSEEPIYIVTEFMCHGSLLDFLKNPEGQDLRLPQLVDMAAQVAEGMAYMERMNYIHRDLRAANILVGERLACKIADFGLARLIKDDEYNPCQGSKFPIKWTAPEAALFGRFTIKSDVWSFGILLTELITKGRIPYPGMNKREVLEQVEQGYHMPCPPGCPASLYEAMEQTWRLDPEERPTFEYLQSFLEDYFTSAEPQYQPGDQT
assay.method.text: KINOMEscan competition binding
test.context: compound 10.0 µM
Report only the number, with the unit % understood.

Looking for the measured kinase still bound, per cent of control of COc1cc2c(Nc3ccc(NC(=O)c4ccccc4)cc3)ncnc2cc1OCCCN1CCOCC1 , can you help?
19

Dear colleague, I am looking for the recorded kinase still bound, per cent of control of the following compound: CCN(CCO)CCCOc1ccc2c(Nc3cc(CC(=O)Nc4cccc(F)c4)[nH]n3)ncnc2c1
82
